meta.source: paper PMC9482650

pKd: recorded values
# target under test: MAGI1_2, Q96QZ7
# Sequence (Q96QZ7 456-580): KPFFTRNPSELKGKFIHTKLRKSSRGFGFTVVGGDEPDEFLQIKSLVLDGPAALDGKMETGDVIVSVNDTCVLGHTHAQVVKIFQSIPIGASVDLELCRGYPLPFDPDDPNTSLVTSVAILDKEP
# assay notes: holdup assay
# Design: key: below the threshold = too weak to quantify, mostly under pKd 3.1 to 4
# test conditions: plain residues with an end cap or a label only (N-terminal biotin on a linker: ado-ado)
recorded metric: pKd

LPHPHSTTRV [NLGN2, Q8NFZ4] : 4.13
RHGSCVETSL [TMEM151B, Q8IW70] : 3.76
PKRSFIESNV [TANC1, Q9C0D5] : 4.37
AKPSRISTVV [IQSEC2, Q5JU85] : 4.82
